B1: HDAC6 (parent)
chain: QEGLLDRCVSFQARFAEKEELMLV

- Variants of: B1
- ASSAY_REMARKS: protein stability index of a GFP-peptide fusion (GPS, HEK-293T) (PSI 1-6); higher = more stable;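 further: lentivirally expressed fusions sorted by FACS into six bins by GFP to DsRed ratio, PSI derived from sequencing read proportions per bin multiplied by bin number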
- EXPERIMENTAL_SETUP: c terminus: a fixed tail appended
So basically: protein stability index at 3 or higher? That is condition met. Lower than 3? That is condition not met.

// below: answered variants
- VARIANT_SPEC: "V24E"
  CATEGORY: "condition met"
- VARIANT_SPEC: "R7L"
  CATEGORY: "condition not met"
- VARIANT_SPEC: "V24T"
  CATEGORY: "condition met"
- VARIANT_SPEC: "V9K"
  CATEGORY: "condition not met"
- VARIANT_SPEC: "E17M"
  CATEGORY: "condition not met"
- VARIANT_SPEC: "F15V"
  CATEGORY: "condition not met"

**Query** Decide: is the reported value of protein stability index for D6A equal to or greater than 3?
**Result** condition not met

**Query** I'd appreciate it if you could say whether L23Y has protein stability index at least equal to 3.
**Result** condition not met

**Query** Exam item: decide whether the reported protein stability index for E2S is at least 3.
**Result** condition not met

**Query** API: above_or_equal(metric=protein stability index, cutoff=3) for item V24I
**Result** condition not met
